- test_description: protease stability score; higher = more stable; yeast display proteolysis, trypsin and chymotrypsin;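 also: relative to predicted unfolded state with 0 unfolded-like and 1 meaning tenfold more protease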
Measured protease stability score accompanies every entry in the list below.
assay_readout: protease stability score

>>> result("DDEEHASRNAYRILKRVVETGDWREFRKMMDPDARVLINGVQLHGREAVHHLLERVDHLHDIELRHIHTQGNKIHIEISVDGLIDGQKTETERRILVTKFNGRWKVEQIEIG")
0.628
>>> result("DEDEELAKKFIEEWHESVLTGDEDSLRKLADPNMKVNVDGRHMVGWEYYKHLLERIDHLTSIEIKRLRVIDGVIDTDVRMDITFDGKRHLLETQLIVLKVNGRWHLRSISMK")
1.36
>>> result("SEIDEEIEKHFELYTHALHTGDEHVLRRLLDPDARLTVGDKTFHGREQVVKELSREIHELRVRDMEIKDEKLVGDKLHQDTRLQFKFNGKEHEIITNFIWLKVNGQWVIREVRYD")
1.25

---

Listing: protease stability score of selected sequences
- test_description: protease stability score; higher = more stable; yeast display proteolysis, trypsin and chymotrypsin;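 also: relative to predicted unfolded state with 0 unfolded-like and 1 meaning tenfold more protease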
assay_readout: protease stability score

>>> result_number("DEDTEKLEKMIEELFKLWLTGDEEKLTHLADPNMRVDVNGRDLHGRHLMSSLWRQIRIEDQRLRIRDWEFFDGRVTIHSHITVRGHINGRHEEITHDVRIVVDKINGRWIIREFRIH")
1.27
>>> result_number("DEKQVLELIRDVMKHVQNGNQEEVKKHGKPSVEVILFNERYTGPEALVRLAEFAQKLGAQFEYKETRHEGNKVKTKVEVTFGGTTVRYEVEVEAEGGKVVKWEVRASDEFDERVKKS")
1.29
>>> result_number("SEVNKHVEEISKLMVKFLLTGNEDLHKSLADPNYYSDVNGRHVIGRHHVEELWHLFLNEIRIDNIHIEDMKIQGEKAHIQGRIIGTVNGKHDELHATMIVVVIDGRIHSLKVEWR")
1
>>> result_number("DEKEHLLKLAIDILKHLHETGDETLAEELADPNTRVHYGDKHIHGRQRYIEHLHRERRRLGVDHSQIELHNWEVVDGRLHLDGKLTLLVGDKRIEFKVRIIMDKVNGRWILHSLEFH")
0.608
>>> result_number("SREEEEATHAVNRWMQLFITGDEESLRELADPDDRINIDGKDFHGREEFEMFMRLFVERFKNLRVELEDTRITVQGDKITVRFKIHFNINGVQTKTEVIIFSTKVNGRWHFKSEEVRHR")
0.415

---

- test_description: protease stability score; higher = more stable; yeast display proteolysis, trypsin and chymotrypsin;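 also: relative to predicted unfolded state with 0 unfolded-like and 1 meaning tenfold more protease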
assay_readout: protease stability score

>>> result_number("SEHEEYNRELSELFWHWFQTGDEEMMNKNVDPDARMIVGEKTHHGWEEFVKLLRETLKRLGADHIILRRMNVQGNKSHIDGEIRINGVTIKTELDLVVVDGRISSLRLSFH")
1.05
>>> result_number("SEEQEITEHFSHLWLEWYLTGDFHKMLKFADPNTKMHIGDKHDHGMERYQEYERRFLEQYKGAKIYIKTVEHYDGRVVIDNIFRFDGREYQLIIEIIVVDGRLKSVHSDMK")
1.25
>>> result_number("DEFKELTTEFIKQFLDNIRTGNEELLRELADPHVRFLVNGRELHGRESFVETFRHWRMKDWEIRDVEVYGEKLVMDGHVRVNIDGREDSVRVRLYVDKIDGQWHHRRFEFN")
1.76
>>> result_number("SEDEHYVRHAIKLWMDSHLTGDEHTLTQLLDPNVRTDFNGREFHGREEASKWTKHLLERMGIKVSDVHLRRLDVQGDKAISHTELIIHFNGVDLSKEVHIDIMKVDGQWMIRDLTII")
0.613
>>> result_number("DEDHEDSKHALEYMLDSVRTGDEHRMKRLVDPNMKVHWDGVDVVGRELAAKFLSQLRVHSVHLKDHKVFDGQLDLHVHIRQEWDGRHRETRTTFFILKINGRWLVTEVRVD")
0.249
>>> result_number("SEDDKREQDYHHYMMEIILTGDFKELFDLADPNVRLRIGDKHFHGRERMLDWYKHLSDRYKNARIHLHKKDYIGEKVIFHEIIHWNGKEVELHINMVIVNGRIRSIHVEDNER")
1.39
>>> result_number("DEKYKRVEQAVRIYLELISTGDEEMISHYVDPNVQAEVGDYEHHGMEEFIKVVSRVDYLEHSEWKDWRYVDGRIEIEGHLYGKINGKRDVLDIRIIASKVNGKWRLHKVTIK")
1.41
>>> result_number("SEDEEIVKKMSKEELEFWRTGNEHELSKLFDPDVLLFVGEKIFHGREVFKHFKERVDHFHEFRDKHIQVIDGRIHIDSEVNSRFNGRQLSEDVRIQALKFDGRWHYKSIHML")
0.336
>>> result_number("TEEDKMEHDYAKLFMFLERTGDETLFEKLVDPDVKHIFDGVHLHGREEVASFLHHLLREWRIHHIDLKRVDVVNGKIEIDGRRNGDFDGKRYETHFTIHVFLYDGRIKWFEIRIR")
1.46
>>> result_number("DEHHERARKVAHLFMRIFETGDEDSMNELLDPNVRWVLIYGDKRFELHGWEELDKDIRRYDHHRLEMKHVEIQGNKADNDTRLRLRFDGKDIETETRLHIRVVDGVMKEVTFDIH")
0.364
>>> result_number("DEHHKHVKEMLDLWRRNMETGDWDEIHKLADPHVRMIIFVGDKEIHSHGREEVHRVLEEWIRRMGVDHLVLHDVTLQGNKIIIDTQRNFDGRYLDTSEIIIVVNGRIKEVTFEEK")
0.341
>>> result_number("DIEERDAEEAVRRWLHFLQTGDEDWLREQLDPNTRIDIDGREIHGMEEVVNVLLRESRHLGVDVLSFELRHVDRQGDKIIVYGRIRLRVNGRDTEIEVILYMVKVNGVWLMKSMEFR")
1.89
>>> result_number("SEEEELLRRITDEMIESMLTGDEKYILENVDPNVRLHIGDKTYVGWETYEDHMRERLEKLGADHMKLEHKDHQGNYTLIEGNLSFNGRELEVRIKLIIVNGVLEQVEVRFD")
0.955
>>> result_number("DEEEEIAHEMVRELVKVLETGDEEIWERLMDPNDRIHIGDKNLVGMDETRKWINEFMERIDHIRVRVRSIHPVDGRANLDTEITTHYNGRTTTYKVLLIVVKVNGRWVLESMHIK")
1.93
>>> result_number("DREEEELKRIMHLFINFVETGDWELILKLMDPNVKMQIDFNGKIFRNHGRDALEYTIRLMGIDHIEIHHQDVIDGKLHIDVTVHIDGQDLRVHIHVIVIDGRIREVRHRTH")
1.23
>>> result_number("DENKETIDRVYRLLDEALKTGDFEIFAYLMDPHVRNDVDGVDIVGRDLVKKVLEDIIRDLGFKHETLKVHDWRSINGRVHIDTEVELDVNGVDLRKRTIIIALKINGKWRITEIVFE")
2.33

---

- test_description: protease stability score; higher = more stable; yeast display proteolysis, trypsin and chymotrypsin;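 also: relative to predicted unfolded state with 0 unfolded-like and 1 meaning tenfold more protease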
Measured protease stability score of individual entries
assay_readout: protease stability score

>>> result_number("HEEEEEFKHVVKEVKEFSETGDWDVLNELMDPHVRLFVNGRLHHGREQISEFWHKVKNVTLIIRHIRPVGEKLEVDGEMKFDGKNIEARIHAQKIDGRWITREYRII")
1.12
>>> result_number("DEDHHEAEEWADLITHFLKTGDEKFLRDLADPNTRFKYGDFHIHGREQLTNFLRHYVERVKGIRSELKDKHVDVQGEKVRVELDLVLRIGDKTIHITIIIINLKVDGKWYVHTLVVEHR")
1.18
>>> result_number("DEHHEILDHFLHLWIEALHTGDWKLIEKLIDPHAKLRIHQGDKHIEIHGREEVVRREEEWLRRIKNLRLHIDRIEIQGNKFHMEITLHFDGVTVDSRVILFVYDGQIKHIEIRHN")
2.43
>>> result_number("DEETEISRRALKIFLDTIHTGDPRELKENLDPSVRIIINGVHYHGRESFEHVLERVEKSAGVDRVHVELRDFRIYGDKVEVEVTNHFNGRTEIDHFILRKVNGRWYIHEVEFE")
2.18
>>> result_number("DEEEKEAVRHWELFMKAELTGDEEKLKNLADPNTRILFNGVEQIGWEELIRKLREIRIKLHDYRVHQVDRIDGRVILDFRVDIILYVGDKFFKHEIRVHVFILKYDGKWILEYEEIK")
0.736
>>> result_number("DETFEDAHKLFKKFWEDMRTGDESEIEKLLDPNDKVHQGEKQTHGREEASRTHQEDIRRVDVFERVHIDHIETQGDFAIIDSTWIIHFDGKRFTRKVIIFLVKINGQWKFHSITMR")
0.71
>>> result_number("HETKHLVDKFIELFKHNLETGDWDRLLELADPRTRVHVGDKTLIGMHEFRELHLRLIEKHGIKLNYYVHEVHVQGDKAHVDNEREEDYNGRVVSFRIRMHVEKFDGRWYLTRIEFN")
1.33
